B1: ZNF449 (parent)
chain: CTHCSKSFRQRAGLIMHQVTHFRG

variants of: B1; test: protein stability index of a GFP-peptide fusion (GPS, HEK-293T) (PSI 1-6); higher = more stable; settings: c terminus: a fixed tail appended;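 note: lentivirally expressed fusions sorted by FACS into six bins by GFP to DsRed ratio, PSI derived from sequencing read proportions per bin multiplied by bin number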
Label criterion met when protein stability index is at or above 2; anything below gets criterion not met.

mutant	class assignment
H21G	criterion not met

QUERY: Is it the case that `G24H` has protein stability index reaching or exceeding 2?
RESULT: criterion met

QUERY: Likewise for `T20W` ?
RESULT: criterion met
